- Test system: SK-MEL-5 melanoma
- MEASUREMENT NOTES: NCI tumour cell line growth inhibition, 48 h

MOLECULE	TARGET SYSTEM	TGI
CCOC(=O)/C(=C/c1ccc(OC)cc1)N(CC)CC	SK-MEL-5 melanoma	> 100 µM
Cc1ccc(Nc2nc(NNC(=O)Cc3ccccc3)nc(NNC(=O)c3ccncc3)n2)cc1	SK-MEL-5 melanoma	> 10 µM
Cc1cn(C2OC(CO[Si](C)(C)C(C)(C)C)C(N(C)O[Si](C)(C)C(C)(C)C)C2[Se]c2ccccc2)c(=O)[nH]c1=O (centres undefined)	SK-MEL-5 melanoma	53.7 µM
O=c1[nH]c(=O)n(C2COC(CO)C2O)cc1F (centres undefined)	SK-MEL-5 melanoma	> 100 µM
COC(=O)c1cc2oc(/C=C3/SC(=S)N(NC(C)=O)C3=O)cc2n1C	SK-MEL-5 melanoma	26.2 µM
CC[C@@H](c1ccc(O)c(O)c1)[C@@H](CC)c1ccc(O)c(O)c1	SK-MEL-5 melanoma	28.9 µM
N#C/C(N)=C(\C#N)NC=NCCO	SK-MEL-5 melanoma	> 100 µM
COc1ccc(/C=C/COC(C)=O)cc1OC	SK-MEL-5 melanoma	> 100 µM
CN(C)CC1CCCC/C1=N/O (centres undefined)	SK-MEL-5 melanoma	> 100 µM

* * *

- Test system: PC-3 prostate
- MEASUREMENT NOTES: NCI tumour cell line growth inhibition, 48 h; in the data active = GI50 below about 0.43 µM; inactive = the rest
Classes used: yes for active, no for inactive

MOLECULE	ANSWER LABEL
c1ccc(Nc2ncc(-c3ccccc3)o2)cc1	no
CC(=C(c1ccc(OCCN2CCCCC2)cc1)c1ccc(OCCN2CCCCC2)cc1)c1ccc(Cl)cc1	yes
c1ccc(-c2n(Cc3ccc4ccccc4n3)cc[n+]2Cc2ccc3ccccc3c2)cc1	no
COc1cc(/C=C2\CN(S(=O)(=O)c3ccc(C)cc3)C/C(=C\c3cc(CN4CCCC4)c(O)c(OC)c3)C2=O)cc(CN2CCCC2)c1O	no
COC(=O)c1cc2oc(/C=C3/SC(=S)N(NC(C)=O)C3=O)cc2n1C	no
COc1ccc2ncnc(Nc3ccc(OCc4ccccc4)cc3)c2c1	no
Fc1cc(-c2nnc3n2N=C(c2ccc(Cl)cc2)CS3)c(Cl)cc1Cl	no
CC(=O)N[C@@H](Cc1ccc(OP(=O)(O)O)cc1)C(=O)N[C@H]1CCC(=O)N2CCC[C@@H](C(=O)Nc3cccc4ccccc34)N2C1=O	no
Cc1cc2c(cc1C)[n+](=O)c(C(=O)c1ccccc1)c(C(F)F)n2[O-]	no
Cc1ccc(NC2=C3CCCCC3OC2=O)cc1 (centres undefined)	no
O=C(NC1CCCCC1)NS(=O)(=O)c1ccc(N2N=C3c4ccccc4CC3C2c2ccc(Cl)cc2)cc1 (centres undefined)	no
OC(c1cc(C(F)(F)F)nc2c(C(F)(F)F)cccc12)C1CCCCN1 (centres undefined)	no
CC1(C)[C@@H](NOCCCN)CC[C@]2(C)[C@H]3C(=O)C=C4[C@@H]5C[C@](C)(C(=O)O)CC[C@]5(C)CC[C@@]4(C)[C@]3(C)CC[C@@H]12	no
COc1ccccc1NC(=O)c1cc2cc(Br)ccc2cc1O	no

* * *

In this section we review reported TGI values for a set of compounds.
- Tested on: HCT-15 colon
- MEASUREMENT NOTES: NCI tumour cell line growth inhibition, 48 h

COMPOUND	TGI
CCOC(=O)c1cc(-c2ccc(OC)cc2)c([N+](=O)[O-])n1C	> 10 µM
Cc1ccc(S(=O)(=O)N2CCC2c2ccccc2)cc1 (stereo not drawn)	> 100 µM
O=C(Nc1c(O)[nH]c(=S)[nH]c1=O)c1ccccc1	> 100 µM
O=C1SC(SCc2ccccc2)=NC12CC2c1ccccc1 (stereo not drawn)	51.4 µM
COc1cc2c(cc1OC)-c1cc(OC)c(OC)cc1C(CN(C)C)C2 (stereo not drawn)	> 10 µM
CCOC(=O)/C(C#N)=C/c1coc2cc(C)cc(C)c2c1=O	> 100 µM
[O-][Cl+3]([O-])([O-])[O-].[O]=[Ru]=[O].c1ccc(-c2ccccn2)nc1.c1ccc(-c2ccccn2)nc1	> 100 µM
CC(=O)OCc1ccc2c(c1)C(O)NC(=O)O2 (stereo not drawn)	> 100 µM
O=C1OC(c2ccccc2)=N/C1=C\c1ccc([N+](=O)[O-])cc1	> 100 µM
O=C1c2ccccc2C(=O)c2c(/C=C\N3CCCCC3)ccnc21	6.41 µM
C=C(C)C12OC1[C@@]1(C)C(=CC2=O)CCC(O)[C@@H]1C (stereo partly drawn)	> 100 µM
O=C1c2cccc3cc([N+](=O)[O-])cc(c23)C(=O)N1Nc1ccc([N+](=O)[O-])cc1[N+](=O)[O-]	27.4 µM
C=C1c2nc3ccccc3n2C=C(c2ccc(OC)cc2)N1c1ccc(OC)cc1	> 100 µM
Nc1ncc2c(n1)-c1ccccc1OC2N1CCCCC1 (stereo not drawn)	> 100 µM
O=[N+]([O-])c1ccc2nc(Nc3ccccc3)c(Nc3ccccc3)nc2c1	2.18 µM
Cc1cc(Nc2ccc(C)c(Cl)c2)n2nc(C(F)(F)F)nc2n1	> 100 µM
CCOC(=O)c1nnn(CCCCO)c1C(=O)OCC	> 100 µM
COc1cccc(-c2cc(=O)c3cc(N4CCCCC4)ccc3[nH]2)c1	> 100 µM
CN(C)CC1CCC/C1=N/OC(=O)c1ccccc1 (stereo not drawn)	> 100 µM
O=C(Nc1cccc(C(F)(F)F)c1)Nc1cccc(C(F)(F)F)c1	3.41 µM
COc1ccc2ncnc(Nc3ccc(OCc4ccccc4)cc3)c2c1	> 25 µM
COc1cc(-c2cccs2)sc1-c1cccs1	> 100 µM
O=C(O)CSc1n[nH]c(-c2ccccc2O)n1	> 100 µM
COc1ccc(CN2C(=O)C(Cl)=C(Nc3cccc(C(F)(F)F)c3)C2=O)cc1	17.6 µM
COc1c2ccccc2c(OC)c2[nH]c(=O)ccc12	4.53 µM
CC1(C)[C@@H](Cn2cc(I)c(=O)[nH]c2=O)CC[C@@]1(C)CO	> 100 µM
Cc1ccc(C(=O)OC(C(=O)O)C(OC(=O)c2ccc(C)cc2)C(=O)O)cc1 (stereo not drawn) (tested in a mixture with another compound)	17.6 µM
NC(N)=NS(=O)(=O)c1ccc(N=Nc2c(O)c(C(=O)O)cc3ccccc23)cc1	> 100 µM
O=C1NC2(CCN(CCc3ccccc3)CC2)Oc2ccccc21	> 100 µM
C/C=C/[C@@H]1O[C@@H]2COC(=O)C2=C[C@@H]1O	39.8 µM
CN1CCN(c2ccc(Nc3ncc(Cl)c(NC[C@@H]4CCCO4)n3)cc2)CC1	> 100 µM
CCN(CC)CCCNC(=O)c1cc(-c2nccn2C)nc2ccccc12	> 100 µM
COc1ccc2oc3c(C)cc4c(OC)nnc(OC)c4c3c2c1	63.9 µM
CNC(=O)NCCCC(NC(C)=O)C(=O)NCc1ccccc1 (stereo not drawn)	> 100 µM
COc1cc2c(cc1O)[C@H](C)C(c1ccc(OC)c(OC)c1)O2 (stereo partly drawn)	13.3 µM
N#Cc1nc(-c2cnccn2)oc1N	> 100 µM
C(=C/CCCN1O[C@@H](CCCCCCCCc2cccnc2)[C@H]2CCC[C@H]21)/CCCCCCCCCc1cccnc1	58.9 µM
CCOC(=O)n1cc(C2=C(c3ccc(OC)c(OC)c3)COC2=O)c2ccccc21	> 100 µM
O=C(O)C1C2c3ccccc3C(c3ccccc32)C1C(=O)NCC1CC1 (stereo not drawn)	> 100 µM
Cc1[cH-]c(=O)n(-c2ccccc2)n1.[Au+].[Au].c1ccc([PH+](c2ccccc2)c2ccccc2)cc1.c1ccc([PH+](c2ccccc2)c2ccccc2)cc1	29.3 µM
COc1ccc(C2c3cc4c(cc3OC3(OC)COC(=O)C23)OCO4)c(OC)c1 (stereo not drawn)	> 100 µM
CCOC(=O)C(=[N+]=[N-])C(=O)CN1C(=O)c2ccccc2C1=O	> 100 µM
CCOC(=O)/C(=C/c1ccc(OC)cc1)N(CC)CC	> 100 µM

* * *

- System: HOP-92 NSCLC
- MEASUREMENT NOTES: NCI tumour cell line growth inhibition, 48 h
RESULT TYPE: TGI (µM)

COMPOUND	RESULT TYPE	QUANTITY UNIT	READOUT QUALIFIER	VALUE OBSERVED
CCCCCCCCCCCCNC(=S)OC	TGI	µM	=	20.1
C[C@@H]1CC[C@H]2C(C)(C)[C@H]3C[C@@]12CC[C@@]3(C)O	TGI	µM	>	100
COc1ccc(S(=O)(=O)n2c3c(c4ccccc42)[C@@H]2[C@@H](CCCN2C(=O)CS(=O)c2ccc(C)cc2)[C@H](Cl)C3)cc1 (stereo not given in full)	TGI	µM	>	100
COc1cc2c(cc1OC)-c1cc(OC)c(OC)cc1C(CN(C)C)C2 (stereo not given)	TGI	µM	>	10
C(=C/CCCN1O[C@@H](CCCCCCCCc2cccnc2)[C@H]2CCC[C@H]21)/CCCCCCCCCc1cccnc1	TGI	µM	=	28.1
CCOC(=O)c1cc(-c2ccc(OC)cc2)c([N+](=O)[O-])n1C	TGI	µM	>	10
CCCC/C=C/C=C/C=C/CCCCCCCC(=O)OCC(COC(=O)CCCCCCC/C=C/C1C=CC(CCCC)C(C(=O)O)C1C(=O)O)OC(=O)CCCCCCC/C=C/C=C/C=C/CCCC (stereo not given) (tested in a mixture with another compound)	TGI	µM	=	48.1
C=C(C)C(=O)O[C@@H]1C[C@@]2(C)O[C@@H]2C[C@H](O)/C(C)=C/[C@H]2OC(=O)C(=C)[C@@H]21	TGI	µM	>	100
CCOC(=O)c1cn2c(n1)sc1cc(F)ccc12	TGI	µM	>	100
C[C@]12[C@@H]3CC[C@H]1[C@@H](O)C(=O)N2CC3	TGI	µM	>	100
N#CSC#CCCC#CSC#N	TGI	µM	=	39.5
c1ccc(Nc2ncc(-c3ccccc3)o2)cc1	TGI	µM	>	25
O=C1NC2(CCN(CCc3ccccc3)CC2)Oc2ccccc21	TGI	µM	=	69.4
Cc1ccc(S(=O)(=O)N2CC2CCCCC=O)cc1 (stereo not given)	TGI	µM	>	100
CCC(C)SC1SCC2C(=O)N(C)C3(CC3C)C(=O)OCC(NC(=O)c3nc4ccccc4cc3O)C(=O)NC(C)C(=O)N(C)C1C(=O)N(C)C1(CC1C)C(=O)OCC(NC(=O)c1nc3ccccc3cc1O)C(=O)NC(C)C(=O)N2C (stereo not given)	TGI	µM	=	0.000585
CCNC(=O)C#Cc1ccc2c(C(=Nc3ccc(CN(C)C)cc3)c3ccccc3)c(O)[nH]c2c1	TGI	µM	=	0.0532
C=C(C)C12OC1[C@@]1(C)C(=CC2=O)CCC(O)[C@@H]1C (stereo not given in full)	TGI	µM	=	93.9
CC(=O)[O-].CC(=O)[O-].O=C(N/N=C/c1cc(Cl)cc(Cl)c1O)c1ccncc1.[Cu+2]	TGI	µM	>	100
Cc1ccc(S(=O)(=O)N2C3C=CC(C3)[C@@H]2C(Cl)(Cl)Cl)cc1 (stereo not given in full)	TGI	µM	=	38.1
CCOC(=O)/C(C#N)=C/c1coc2cc(C)cc(C)c2c1=O	TGI	µM	>	100
O=C1c2cc3c(cc2CC12Cc1ccc4c(c1C2=O)CCC4)CCCC3 (stereo not given)	TGI	µM	>	100
CCOC(=O)/C(=C/c1ccc(OC)cc1)N(CC)CC	TGI	µM	>	100
OC(c1cc(C(F)(F)F)nc2c(C(F)(F)F)cccc12)C1CCCCN1 (stereo not given)	TGI	µM	=	3.69
NC(=S)N/N=C1\c2cc(Cl)ccc2-c2c1cc(Cl)cc2[N+](=O)[O-]	TGI	µM	=	13.1
COc1cc(-c2cccs2)sc1-c1cccs1	TGI	µM	=	78.9
COc1ccc(/C=C/COC(C)=O)cc1OC	TGI	µM	>	100
CC1NC(=O)C(C)C(c2ccccc2)N(N=O)C1c1ccccc1 (stereo not given)	TGI	µM	>	100
CN(C)CC1CCC/C1=N/OC(=O)c1ccccc1 (stereo not given)	TGI	µM	>	100
C/C=C/[C@@H]1O[C@@H]2COC(=O)C2=C[C@@H]1O	TGI	µM	=	9.35
CC1=C/C(=N\NC(N)=S)C(C(O)(C(F)(F)F)C(F)(F)F)C(C)(C)C1 (stereo not given)	TGI	µM	>	10
Cc1ccc(C(=O)OC(C(=O)O)C(OC(=O)c2ccc(C)cc2)C(=O)O)cc1 (stereo not given) (tested in a mixture with another compound)	TGI	µM	=	11.8
COc1ccc2c(c1)[n+]([O-])c(C(N)=O)c(N)[n+]2[O-]	TGI	µM	>	100
CN(C)CC(O)c1ccc(/C=C/c2ccc(Cl)cc2)cc1 (stereo not given)	TGI	µM	=	3.13
Oc1ccc(NCn2c(=S)sc3ccccc32)cc1	TGI	µM	>	100
NC(N)=NS(=O)(=O)c1ccc(N=Nc2c(O)c(C(=O)O)cc3ccccc23)cc1	TGI	µM	>	100
Cc1[nH]c(=O)nc2sc(=NC3CCCCC3)n(C3CCCCC3)c(=O)c12	TGI	µM	>	100
COc1ccc(C2c3cc4c(cc3OC3(OC)COC(=O)C23)OCO4)c(OC)c1 (stereo not given)	TGI	µM	=	97.6
C#Cc1cccc(Nc2nc3cc([N+](=O)[O-])ccc3nc2Nc2ccc(O)cc2)c1	TGI	µM	=	3.6
COCCn1cc(-c2nc(-c3cc4cccnc4[nH]3)cs2)c2cc(OC)ccc21	TGI	µM	=	2.46
COc1ccc(Cn2c(Br)c3c(c2Br)-c2nc(N)sc2CC3)cc1	TGI	µM	=	14

The origin of these recorded values is PubChem BioAssay (NCI).
